Would you kindly list pKi for each of these compounds?
- tgt: CDK4/Cyclin D1 (Homo sapiens (Human), UniProt P11802)
- Sequence (P11802 whole entry): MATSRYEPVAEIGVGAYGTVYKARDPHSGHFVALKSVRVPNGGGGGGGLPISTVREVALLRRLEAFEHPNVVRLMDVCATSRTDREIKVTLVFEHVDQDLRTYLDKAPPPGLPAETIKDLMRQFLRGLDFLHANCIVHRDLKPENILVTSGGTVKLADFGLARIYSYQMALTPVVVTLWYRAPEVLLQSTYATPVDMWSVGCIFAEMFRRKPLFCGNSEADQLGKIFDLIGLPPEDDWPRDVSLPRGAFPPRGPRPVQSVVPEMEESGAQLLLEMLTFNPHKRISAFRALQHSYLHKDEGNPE
- Sequence (P24385 whole entry partner): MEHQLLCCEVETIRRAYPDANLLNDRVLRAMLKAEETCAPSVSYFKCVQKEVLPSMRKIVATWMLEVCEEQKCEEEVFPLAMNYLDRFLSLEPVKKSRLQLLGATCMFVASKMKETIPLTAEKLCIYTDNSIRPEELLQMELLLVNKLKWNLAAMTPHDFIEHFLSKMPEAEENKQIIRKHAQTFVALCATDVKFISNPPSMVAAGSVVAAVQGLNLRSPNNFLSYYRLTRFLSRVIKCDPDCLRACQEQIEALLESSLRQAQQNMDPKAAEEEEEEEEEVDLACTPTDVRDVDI
- experimental_protocol: CDK4/Cyclin D1 mobility shift assay
- measurement_parameters: activated CDK4/Cyclin D1, 3.5 mM ATP, Morrison fit; read-out: CDK4D1 Ki
# log scale: pKi equals minus log10 of the concentration in mol/L

Consider COCC(C)n1c(C)nc2c(F)cc(-c3nc(N[C@@H]4CCN(S(C)(=O)=O)C[C@H]4O)ncc3Cl)cc21 (single isomer, unassigned) [Example A74] . Its measured pKi is 9.70

Consider CC(C)n1cnc2c(F)cc(-c3nc(N[C@@H]4CCN(C(=O)C5(C)COC5)C[C@H]4O)ncc3Cl)cc21 . Its measured pKi is 8.82

Consider CC(C)n1cnc2c(F)cc(-c3nc(N[C@@H]4CCN(C(=O)C5(N)CC5)C[C@H]4O)ncc3Cl)cc21 . Its measured pKi is 8.66

Consider CC(C)n1c(CO)nc2c(F)cc(-c3nc(N[C@@H]4CCN(S(C)(=O)=O)C[C@H]4O)ncc3Cl)cc21 . Its measured pKi is 9.70

Consider C[C@@H](O)c1nc2c(F)cc(-c3nc(N[C@@H]4CCOC[C@H]4O)ncc3Cl)cc2n1C(C)(C)C . Its measured pKi is 8.80

Consider CC(O)c1nc2c(F)cc(-c3nc(N[C@@H]4CCOC[C@H]4O)ncc3Cl)cc2n1C(C)C(F)F (single isomer, unassigned) . Its measured pKi is 9.70

Consider CC(C)(CN)n1cnc2c(F)cc(-c3nc(N[C@@H]4CCOC[C@H]4O)ncc3Cl)cc21 . Its measured pKi is 8.70

Consider CC(C)n1c(C(C)(O)C2CC2)nc2c(F)cc(-c3nc(N[C@@H]4CCOC[C@H]4O)ncc3Cl)cc21 (single isomer, unassigned) [Example A23] . Its measured pKi is 9.30

Consider CC1(C)COCc2nc3c(F)cc(-c4nc(N[C@@H]5CCOC[C@H]5O)ncc4F)cc3n21 . Its measured pKi is 9.05

Consider Cc1nc2c(F)cc(-c3nc(N[C@@H]4CCN(S(C)(=O)=O)C[C@H]4O)ncc3Cl)cc2n1C1COC1 . Its measured pKi is 9.30

Consider Cc1nc2c(F)cc(-c3nc(N[C@@H]4CCN(S(C)(=O)=O)C[C@H]4O)ncc3Cl)cc2n1C1CC1 . Its measured pKi is 9.52

Consider CC(C)n1c(C2CCO2)nc2c(F)cc(-c3nc(N[C@@H]4CCN(S(C)(=O)=O)C[C@H]4O)ncc3Cl)cc21 (single isomer, unassigned) [Example A32] . Its measured pKi is 9.05

Consider Cc1cnc(N[C@@H]2CCN(S(C)(=O)=O)C[C@H]2O)nc1-c1cc(F)c2nc(C)n(C(C)C)c2c1 . Its measured pKi is 8.39

Consider CC(C)n1c([C@@H](C)O)nc2c(F)cc(-c3nc(N[C@@H]4CCN(S(C)(=O)=O)C[C@@H]4O)ncc3Cl)cc21 (single isomer, unassigned) [Example F11] . Its measured pKi is 8.27

Consider CC(C)n1c([C@@H](C)O)nc2c(F)cc(-c3nc(N[C@@H]4CCNC[C@H]4O)ncc3Cl)cc21 . Its measured pKi is 7.77

Consider CC(C)n1cnc2c(F)cc(-c3nc(N[C@@H]4CCN(C(=O)C5(N)CC(F)(F)C5)C[C@H]4O)ncc3Cl)cc21 . Its measured pKi is 8.74

Consider CC1(C)OCCn2nc3c(F)cc(-c4nc(N[C@@H]5CCOC[C@H]5O)ncc4F)cc3c21 . Its measured pKi is 9.30

Consider CC(C)n1c(C(C)(O)C2CC2)nc2c(F)cc(-c3nc(N[C@@H]4CCOC[C@H]4O)ncc3Cl)cc21 (single isomer, unassigned) [Example A24] . Its measured pKi is 8.89

Consider CC(C)(C)n1cnc2ccc(-c3nc(N[C@@H]4CCN(S(C)(=O)=O)C[C@H]4O)ncc3F)cc21 . Its measured pKi is 9.52

Consider CC(=O)c1nc2c(F)cc(-c3nc(N[C@@H]4CCN(S(C)(=O)=O)C[C@H]4O)ncc3Cl)cc2n1C(C)C . Its measured pKi is 9.40

Consider CC(O)c1nc2c(F)cc(-c3nc(N[C@@H]4CCN(S(=O)(=O)C(F)F)C[C@H]4O)ncc3Cl)cc2n1C(C)C (some centres unmarked) [Example F09] . Its measured pKi is 9.22

Consider CC(C)n1nnc2ccc(-c3nc(N[C@@H]4CCN(S(C)(=O)=O)C[C@H]4O)ncc3Cl)cc21 . Its measured pKi is 8.22

Consider OCc1nc2c(F)cc(-c3nc(N[C@@H]4CCOC[C@H]4O)ncc3Cl)cc2n1C1CC(F)(F)C1 . Its measured pKi is 7.92

Consider CC(C)n1c([C@@H](C)O)nc2c(F)cc(-c3nc(N[C@@H]4CCN(S(C)(=O)=O)C[C@@H]4O)ncc3Cl)cc21 (single isomer, unassigned) [Example F12] . Its measured pKi is 7.30

Consider CC(C(F)F)n1c(CO)nc2c(F)cc(-c3nc(N[C@@H]4CCN(S(C)(=O)=O)C[C@H]4O)ncc3Cl)cc21 (some centres unmarked) . Its measured pKi is 10.00

Consider CC(C)n1c(CN(C)C)nc2c(F)cc(-c3nc(N[C@@H]4CCOC[C@H]4O)ncc3Cl)cc21 . Its measured pKi is 9.10

Ref: patent US10766884B2
